Each recorded value in this set is attributed to patent EP1027361B1.

Hi there, I'd appreciate the recorded minimum inhibitory concentration (MIC) for every entry that follows.
# Tested on: Streptococcus Pheumoniae 5649
# protocolNotes: in vitro antibacterial activity, agar dilution MIC
# Type: cell-based
# conditionDescription: organism code ZZA, BHI agar, 35-37 °C, 20 to 24 hours
Respond using a number only.

# return recorded minimum inhibitory concentration (MIC) for entry CC[C@H]1OC(=O)[C@H](C)[C@@H](O[C@H]2C[C@@](C)(OC)[C@@H](O)[C@H](C)O2)[C@H](C)[C@@H](O[C@@H]2O[C@H](C)C[C@H](N(C)C)[C@H]2O)[C@@]2(C)C[C@@H](C)C(=O)[C@H](C)[C@H]3N(CCNC(=O)Cc4ccccc4C=CCO2)C(=O)O[C@]13C
16

Read off the recorded minimum inhibitory concentration (MIC) for CC[C@H]1OC(=O)[C@H](C)[C@@H](O[C@H]2C[C@@](C)(OC)[C@@H](O)[C@H](C)O2)[C@H](C)[C@@H](O[C@@H]2O[C@H](C)C[C@H](N(C)C)[C@H]2O)[C@@]2(C)C[C@@H](C)C(=O)[C@H](C)[C@H]3N(CCCCO2)C(=O)O[C@]13C
16

Answer with the recorded minimum inhibitory concentration (MIC) for the compound listed here: CC[C@H]1OC(=O)[C@H](C)[C@@H](O[C@H]2C[C@@](C)(OC)[C@@H](O)[C@H](C)O2)[C@H](C)[C@@H](O[C@@H]2O[C@H](C)C[C@H](N(C)C)[C@H]2O)[C@@]2(C)C[C@@H](C)C(=O)[C@H](C)[C@H]3N(CCNC(=O)c4ccccc4C=CCO2)C(=O)O[C@]13C
16

Give recorded minimum inhibitory concentration (MIC). CC[C@H]1OC(=O)[C@H](C)[C@@H](O[C@H]2C[C@@](C)(OC)[C@@H](O)[C@H](C)O2)[C@H](C)[C@@H](O[C@@H]2O[C@H](C)C[C@H](N(C)C)[C@H]2O)[C@](C)(O)C[C@@H](C)C(=O)[C@H](C)[C@@H](O)[C@]1(C)O [Ery. A, Erythromycin A, reference compound]
16

Recall and state the measured minimum inhibitory concentration (MIC) for CC[C@H]1OC(=O)[C@H](C)[C@@H](O[C@H]2C[C@@](C)(OC)[C@@H](O)[C@H](C)O2)[C@H](C)[C@@H](O[C@@H]2O[C@H](C)C[C@H](N(C)C)[C@H]2O)[C@@]2(C)C[C@@H](C)C(=O)[C@H](C)[C@H]3N(CCC=CCO2)C(=O)O[C@]13C .
8

Output minimum inhibitory concentration (MIC) of CC[C@H]1OC(=O)[C@H](C)C(=O)[C@H](C)[C@@H](O[C@@H]2O[C@H](C)C[C@H](N(C)C)[C@H]2O)[C@@]2(C)C[C@@H](C)C(=O)[C@H](C)[C@H]3N(CCOCc4ccccc4C=CCO2)C(=O)O[C@]13C
1

Supply reported minimum inhibitory concentration (MIC) belonging to this compound: CC[C@H]1OC(=O)[C@H](C)[C@@H](O[C@H]2C[C@@](C)(OC)[C@@H](OC(C)=O)[C@H](C)O2)[C@H](C)[C@@H](O[C@@H]2O[C@H](C)C[C@H](N(C)C)[C@H]2O)[C@@]2(C)C[C@@H](C)C(=O)[C@H](C)[C@H]3N(CCNCc4cccc(c4)C=CCO2)C(=O)O[C@]13C
8
